Where these numbers come from: patent US8088734B2

- ASSAY_INFO: in vivo
- PARTICULARS: female, rat, 2.5 mg
The compounds listed here are annotated with their level at 0.5 h.

{"columns": ["ENTRY_SMILES", "level at 0.5 h / ng/mL"],
 "data": [
  ["CC(C)C[C@H](NC(=O)CNC(=O)[C@H](Cc1ccc(O)cc1)NC(=O)[C@H](CO)NC(=O)[C@H](Cc1c[nH]c2ccccc12)NC(=O)[C@H](Cc1cnc[nH]1)NC(=O)[C@@H]1CCC(=O)N1)C(=O)N[C@@H](CCCNC(=N)N)C(=O)N1CCC[C@H]1C(=O)NCC(N)=O", 2900],
  ["CC(C)C[C@H](NC(=O)CNC(=O)[C@H](Cc1ccc(O)cc1)NC(=O)[C@H](CO)NC(=O)[C@H](Cc1c[nH]c2ccccc12)NC(=O)[C@H](Cc1cnc[nH]1)NC(=O)[C@@H]1CCC(=O)N1)C(=O)N[C@@H](CCCN=C(N)N)C(=O)N1CCC[C@H]1C(=O)NCC(=O)O", 391]
]}
